- SYSTEM TESTED: T1, biotinylated goat anti-human kappa light chain
- T1 construct: Positive control of the ELISA
- PROTOCOL NOTES: ELISA; positive control; further: test concentration or dose not given here
METRIC: optical density (OD)
# value in OD; strip the unit string

### Prompt State its optical density: 374_E05 (antibody, V domains shown, VH/VL only) VH: EVQLLESGGGLVQPGGSLRLSCAASGFTFSSYSMNWVRQAPGKGLEWVAGINYNGGYTSYADSVKGRFTISRDNSKNTLYLQMNSLRAEDTAVYYCARSANWHDTALDYWGQGTLVTVSS VL: DIQMTQSPSSLSASVGDRVTITCRASQSILSFVNWYQQKPGKAPKLVIYAATSRASGVPSRFSGSGSGTDFTLTISSLQPEDFATYYCQQSYNLPLTFGGGTKVEIK
### Response 3.18

### Prompt State its optical density: 369_F07 (antibody, V domains shown, VH/VL only) VH: EVQLLESGGGLVQPGGSLRLSCAASGFTFDSYSMNWVRQAPGKGLEWVAGINYNGGYKSYADSVKGRFTISRDNSKNTLYLQMNSLRAEDTAVYYCARSATWHDTHLDYWGQGTLVTVSS VL: DIQMTQSPSSLSASVGDRVTITCRASQSILSYVNWYQQKPGKAPKLVIYAATSRASGVPSRFSGSGSGTDFTLTISSLQPEDFATYYCQQSYESPLTFGGGTKVEIK
### Response 3.47

### Prompt State its optical density: 368_F12 (antibody, V domains shown, VH/VL only) VH: EVQLLESGGGLVQPGGSLRLSCAASGFTFDDYSMNWVRQAPGKGLEWVASINYNSGYKSYADSVKGRFTISRDNSKNTLYLQMNSLRAEDTAVYYCARSATWHDTHLDYWGQGTLVTVSS VL: DIQMTQSPSSLSASVGDRVTITCRASQSIVTYLNWYQQKPGKAPKLVIYAATSLASGVPSRFSGSGSGTDFTLTISSLQPEDFATYYCQQSYDLPLTFGGGTKVEIK
### Response 3.52

### Prompt State its optical density: 365_A01 (antibody, V domains shown, VH/VL only) VH: EVQLLESGGGLVQPGGSLRLSCAASGFTFSDYGMNWVRQAPGKGLEWVAGINYNGGYTSYADSVKGRFTISRDNSKNTLYLQMNSLRAEDTAVYYCARSATWHDTHLDYWGQGTLVTVSS VL: DIQMTQSPSSLSASVGDRVTITCRASQSILTYVNWYQQKPGKAPKLVIYATTSLASGVPSRFSGSGSGTDFTLTISSLQPEDFATYYCQQSYSTPLTFGGGTKVEIK
### Response 3.51

### Prompt State its optical density: 375_B04 (antibody, V domains shown, VH/VL only) VH: EVQLLESGGGLVQPGGSLRLSCAASGFTFDSYSMNWVRQAPGKGLEWVANINYNGGYTGYADSVKGRFTISRDNSKNTLYLQMNSLRAEDTAVYYCARSATWHDTHLDYWGQGTLVTVSS VL: DIQMTQSPSSLSASVGDRVTITCRASQSILTYLNWYQQKPGKAPKLLIYAATSRASGVPSRFSGSGSGTDFTLTISSLQPEDFATYYCQQSYDNPLTFGGGTKVEIK
### Response 3.26

### Prompt State its optical density: 376_C11 (antibody, V domains shown, VH/VL only) VH: EVQLLESGGGLVQPGGSLRLSCAASGFTFDSYSMNWVRQAPGKGLEWVAGINYNSGYKSYADSVKGRFTISRDNSKNTLYLQMNSLRAEDTAVYYCARSATWHDTHLDYWGQGTLVTVSS VL: DIQMTQSPSSLSASVGDRVTITCRASQSILTYLNWYQQKPGKAPKLVIYAATSRASGVPSRFSGSGSGTDFTLTISSLQPEDFATYYCQQSYDNPLTFGGGTKVEIK
### Response 3.46

### Prompt State its optical density: 373_B11 (antibody, V domains shown, VH/VL only) VH: EVQLLESGGGLVQPGGSLRLSCAASGFTFSSYSMNWVRQAPGKGLEWVANINYNSGYKGYADSVKGRFTISRDNSKNTLYLQMNSLRAEDTAVYYCARSATWHDTHLDYWGQGTLVTVSS VL: DIQMTQSPSSLSASVGDRVTITCRASQSILSYLNWYQQKPGKAPKLLIYAATSRASGVPSRFSGSGSGTDFTLTISSLQPEDFATYYCQQSYDNPLTFGGGTKVEIK
### Response 3.22

### Prompt State its optical density: 376_B09 (antibody, V domains shown, VH/VL only) VH: EVQLLESGGGLVQPGGSLRLSCAASGFTFDSYSMNWVRQAPGKGLEWVANINYNSGYKGYADSVKGRFTISRDNSKNTLYLQMNSLRAEDTAVYYCARSANWHDTALDYWGQGTLVTVSS VL: DIQMTQSPSSLSASVGDRVTITCRASQSILTYVNWYQQKPGKAPKLVIYAATSRASGVPSRFSGSGSGTDFTLTISSLQPEDFATYYCQQSYDLPLTFGGGTKVEIK
### Response 3.51

### Prompt State its optical density: 365_A10 (antibody, V domains shown, VH/VL only) VH: EVQLLESGGGLVQPGGSLRLSCAASGFTFSSYGMHWVRQAPGKGLEWVAGINYNSGYTSYADSVKGRFTISRDNSKNTLYLQMNSLRAEDTAVYYCARSATWHDTHLDYWGQGTLVTVSS VL: DIQMTQSPSSLSASVGDRVTITCRASQSILTYLNWYQQKPGKAPKLVIYAVTSLASGVPSRFSGSGSGTDFTLTISSLQPEDFATYYCQQSYDSPLTFGGGTKVEIK
### Response 3.45

### Prompt State its optical density: 375_E07 (antibody, V domains shown, VH/VL only) VH: EVQLLESGGGLVQPGGSLRLSCAASGFTFSDYSMNWVRQAPGKGLEWVAGINYNSGYKGYADSVKGRFTISRDNSKNTLYLQMNSLRAEDTAVYYCARSANWHDTALDYWGQGTLVTVSS VL: DIQMTQSPSSLSASVGDRVTITCRASQSIVTYLNWYQQKPGKAPKLLIYVVTNRESGVPSRFSGSGSGTDFTLTISSLQPEDFATYYCQQSYETPLTFGGGTKVEIK
### Response 3.06
